system-under-test: T1, cynomolgus TIGIT over-expressed on CHO-K1 cells (cynomolgus, UniProt A0A7N9I9V4 89-312)
T1 construct: whole, on cells; also called CHO-K1/cynomolgus TIGIT cells
T1 sequence (A0A7N9I9V4 entry or part of it): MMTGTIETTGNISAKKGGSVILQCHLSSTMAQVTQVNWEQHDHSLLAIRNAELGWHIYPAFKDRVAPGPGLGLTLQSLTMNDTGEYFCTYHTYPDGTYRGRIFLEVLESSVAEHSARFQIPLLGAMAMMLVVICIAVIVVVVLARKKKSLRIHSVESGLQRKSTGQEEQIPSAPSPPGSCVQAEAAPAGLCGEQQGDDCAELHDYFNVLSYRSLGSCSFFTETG
protocol-description: FACS, CHO-K1 cells over-expressing cynomolgus TIGIT
readout-type: pEC50
One number for each entry, as −log10 of the molar value.

Reported pEC50 for 100C4E7D11 chimeric (antibody, V domains shown, also called 100C4 Chimeric) VH: EVMLVESGGGLVKPGGSLKLSCAASGFTFSFYTMSWVRQTPEKRLEWVATISSGGGSTYYSDSVKGRFTISRDNAKNNLYLQMTSLRSEDTALYYCSRSLPVDYWGQGTTLTVSS VL: QIVLTQSPAIMSASLGERVTMTCTASSSVSSTYLHWYQQKPGSSPKLWIYSTSNLASGVPARFSGSGSGTSYSLTISSMEAEDAATYYCHLYHHSPYTFGGGTKLEIK was 8.99

Each recorded value in this set is attributed to patent US20210095028A1.
